From: patent US20100298141A1

- Test system: duck salad
- assay.info: Test C flooded paddy test
- Type: in vivo, Heteranthera limosa
- stated.conditions: Flood, 62 g ai/ha; scale 0 to 100, 0 no effect, 100 complete control; 13 to 15 days
Listing of recorded Plant response rating, Ducksalad by entry.
result.type: Plant response rating, Ducksalad

- compound: "CC(c1c(C(F)(F)F)nn(C)c1Cl)S(=O)(=O)c1ccc(Cl)c[n+]1[O-] (racemic)"
  val: 45
- compound: "Cn1nc(C(F)(F)F)c(C[S+]([O-])c2ccc(Br)c[n+]2[O-])c1OC(F)F (racemic)"
  val: 0
- compound: "Cn1nc(C(F)(F)F)c(C[S+]([O-])c2cc(F)cc[n+]2[O-])c1Cl (racemic)"
  val: 85
- compound: "Cn1nc(C(F)(F)F)c(CS(=O)(=O)c2cc(C(C)(C)C)cc[n+]2[O-])c1OC(F)F"
  val: 40
- compound: "CC(c1c(C(F)(F)F)nn(CC(F)(F)F)c1Cl)S(=O)(=O)c1ccc(Cl)c[n+]1[O-] (centres unmarked)"
  val: 40
- compound: "Cc1cc[n+]([O-])c(S(=O)(=O)Cc2c(C(F)(F)F)nn(C)c2Cl)c1"
  val: 0
- compound: "Cn1nc(C(F)(F)F)c(CS(=O)(=O)c2cccc[n+]2[O-])c1Cl"
  val: 65
- compound: "Cc1cc[n+]([O-])c(S(=O)(=O)C(C)c2c(C(F)(F)F)nn(C)c2Cl)c1 (racemic)"
  val: 50
- compound: "Cn1nc(C(F)(F)F)c(C(Cl)S(=O)(=O)c2cccc[n+]2[O-])c1OC(F)F (centres unmarked)"
  val: 35
- compound: "[O-][n+]1cc(Cl)ccc1[S+]([O-])Cc1c(C(F)(F)F)nn(CC(F)(F)F)c1Cl (centres unmarked)"
  val: 75
- compound: "Cn1nc(C(F)(F)F)c(C(Cl)S(=O)(=O)c2cccc[n+]2[O-])c1Cl (centres unmarked)"
  val: 95

====

- Tested on: mustard
- assay.info: Test F preemergence test
- Assay type: in vivo, Brassica nigra
- stated.conditions: Preemergence; 31 g ai/ha; scale 0 to 100
result.type: Plant response rating, Black Mustard

- compound: "Cc1cc[n+]([O-])c(S(=O)(=O)Cc2c(C(F)(F)F)nn(C)c2Cl)c1 [Compound 19]"
  result.type: "Plant response rating, Black Mustard"
  val: 20
- compound: "Cn1nc(C(F)(F)F)c(C[S+]([O-])c2ccc(F)c[n+]2[O-])c1OCC(F)(F)F (stereo not drawn) [Compound 67]"
  result.type: "Plant response rating, Black Mustard"
  val: 75
- compound: "CCc1cc[n+]([O-])c(S(=O)(=O)Cc2c(C(F)(F)F)nn(C)c2OCC(F)(F)F)c1 [Compound 60]"
  result.type: "Plant response rating, Black Mustard"
  val: 0

====

- Tested on: Italian ryegrass
- assay.info: Test C pre-/postemergence test
- Assay type: in vivo, Lolium multiflorum
- stated.conditions: 62 g ai/ha, Preemergence; scale 0 to 100

- compound: "Cc1cc[n+]([O-])c(S(=O)(=O)Cc2c(C(F)(F)F)nn(C)c2OC(C)C(F)(F)F)c1 (stereo not drawn) [Compound 96]"
  Ryegrass, Italian plant response rating: 98
- compound: "Cn1nc(C(F)(F)F)c(C[S+]([O-])c2cccc[n+]2[O-])c1OCC(F)(F)F (racemic) [Compound 28]"
  Ryegrass, Italian plant response rating: 85
- compound: "CCc1cc[n+]([O-])c([S+]([O-])Cc2c(C(F)(F)F)nn(C)c2OCC(F)(F)F)c1 (stereo not drawn) [Compound 59]"
  Ryegrass, Italian plant response rating: 55

====

- System: wild oat
- assay.info: Test C pre-/postemergence test
- Type: in vivo, Avena fatua
- stated.conditions: Preemergence, 31 g ai/ha; scale 0 to 100 (0 no effect, 100 complete control)

- compound: "Cn1nc(C(F)(F)C(F)(F)F)c(C[S+]([O-])c2cccc[n+]2[O-])c1OCC(F)(F)F (stereo not shown)"
  Plant response rating, Oat, Wild: 70
- compound: "Cn1nc(C(F)(F)F)c(C[S+]([O-])c2cccc[n+]2[O-])c1OCC(F)(F)F (racemic)"
  Plant response rating, Oat, Wild: 70
- compound: "C#CCOc1c(CS(=O)(=O)c2cccc[n+]2[O-])c(C(F)(F)F)nn1C"
  Plant response rating, Oat, Wild: 40
- compound: "Cc1cc[n+]([O-])c(S(=O)(=O)Cc2c(C(F)(F)F)nn(C)c2OCC(F)(F)F)c1"
  Plant response rating, Oat, Wild: 5

====

- Test system: morningglory
- assay.info: Test A pre-/postemergence greenhouse test
- Format: in vivo, Ipomoea spp.
- stated.conditions: Preemergence, 125 g ai/ha; 0 to 100 scale, 0 no effect, 100 complete control
result.type: Morningglory plant response rating

- compound: "CC(Oc1c(C[S+]([O-])c2ccc(Cl)c[n+]2[O-])c(C(F)(F)F)nn1C)C(F)(F)F (stereo not shown) [Compound 87]"
  val: 20
- compound: "Cn1nc(C(F)(F)F)c(C[S+]([O-])c2cccc[n+]2[O-])c1OCC(F)(F)C(F)(F)F (stereo not shown) [Compound 78]"
  val: 20
- compound: "C#CCOc1c(C[S+]([O-])c2cccc[n+]2[O-])c(C(F)(F)F)nn1C (stereo not shown) [Compound 76]"
  val: 50
- compound: "Cc1cc[n+]([O-])c(S(=O)(=O)Cc2c(C(F)(F)F)nn(C)c2OCC(F)F)c1 [Compound 94]"
  val: 50

====

- Tested on: johnsongrass
- assay.info: Test C pre-/postemergence test
- Format: in vivo, Sorghum halepense
- stated.conditions: Preemergence, 31 g ai/ha; scale 0 to 100 (0 no effect, 100 complete control)
result.type: Plant response rating, Johnsongrass

- compound: "Cn1nc(C(F)(F)F)c(C(Cl)S(=O)(=O)c2cccc[n+]2[O-])c1OCC(F)(F)F (racemic)"
  val: 60
- compound: "CC(c1c(C(F)(F)F)nn(C)c1OCC(F)(F)F)S(=O)(=O)c1cccc[n+]1[O-] (racemic)"
  val: 98
- compound: "Cn1nc(C(F)(F)F)c(C[S+]([O-])c2cc(C(C)(C)C)cc[n+]2[O-])c1OC(F)F (racemic)"
  val: 50
- compound: "[O-][n+]1cc(Cl)ccc1[S+]([O-])Cc1c(C(F)(F)F)nn(CC(F)(F)F)c1Cl (stereo not shown)"
  val: 85
- compound: "CC(C)c1cc[n+]([O-])c([S+]([O-])Cc2c(C(F)(F)F)nn(C)c2OC(F)F)c1 (stereo not shown)"
  val: 85
- compound: "Cn1nc(OC(F)F)c(CS(=O)(=O)c2cccc[n+]2[O-])c1C(F)(F)F"
  val: 85
- compound: "CCc1cc[n+]([O-])c(S(=O)(=O)Cc2c(C(F)(F)F)nn(C)c2OCC(F)(F)F)c1"
  val: 100

====

- System: morningglory
- assay.info: Test C pre-/postemergence test
- Assay type: in vivo, Ipomoea coccinea
- stated.conditions: 62 g ai/ha, Preemergence; scale 0 to 100

- compound: "Cc1cc[n+]([O-])c(S(=O)(=O)Cc2c(C(F)(F)F)nn(C)c2OCC(F)(F)F)c1"
  Morningglory plant response rating: 100
- compound: "Cn1nc(C(F)(F)F)c(C[S+]([O-])c2cccc[n+]2[O-])c1OCC(F)(F)F (racemic)"
  Morningglory plant response rating: 100
- compound: "CCn1nc(C(F)(F)F)c(CS(=O)(=O)c2cc(C)cc[n+]2[O-])c1OCC(F)(F)F"
  Morningglory plant response rating: 50
- compound: "Cc1cc[n+]([O-])c([S+]([O-])Cc2c(C(F)(F)F)nn(C)c2Cl)c1 (racemic)"
  Morningglory plant response rating: 85
- compound: "[O-][n+]1cc(Cl)ccc1[S+]([O-])Cc1c(C(F)(F)F)nn(CC(F)(F)F)c1Cl (centres unmarked)"
  Morningglory plant response rating: 100
- compound: "CC(c1c(C(F)(F)F)nn(CC(F)(F)F)c1Cl)[S+]([O-])c1cccc[n+]1[O-] (centres unmarked)"
  Morningglory plant response rating: 100
- compound: "CC(Oc1c(CS(=O)(=O)c2cccc[n+]2[O-])c(C(F)(F)F)nn1C)C(F)(F)F (centres unmarked)"
  Morningglory plant response rating: 70
- compound: "Cn1nc(C(F)(F)F)c(CS(=O)(=O)c2ccc(Cl)c[n+]2[O-])c1Cl"
  Morningglory plant response rating: 0

====

Listing of recorded Surinam Grass plant response rating by entry.
- Tested on: Surinam grass
- assay.info: Test C pre-/postemergence test
- Type: in vivo, Brachiaria decumbens
- stated.conditions: 62 g ai/ha, Preemergence; scale 0 to 100
- From the text: Seeds of plant species selected from blackgrass (Alopecurus myosuroides), downy brome (Bromus tectorum), green foxtail (Setaria viridis), Italian ryegrass (Lolium multiflorum), wheat (Triticum aestivum), wild oat (Avena fatua), catchweed bedstraw (Galium aparine), Russian thistle (Salsola kali), […] […]
result.type: Surinam Grass plant response rating

- compound: "Cn1nc(C(F)(F)F)c(C[S+]([O-])c2ccc(F)c[n+]2[O-])c1Cl (stereo not shown)"
  result.type: "Surinam Grass plant response rating"
  val: 90
- compound: "Cc1cc[n+]([O-])c(S(=O)(=O)Cc2c(C(F)(F)F)nn(C)c2OC(C)C(F)(F)F)c1 (stereo not shown)"
  result.type: "Surinam Grass plant response rating"
  val: 80
- compound: "Cn1nc(C(F)(F)C(F)(F)F)c(C[S+]([O-])c2ccc(Cl)c[n+]2[O-])c1OCC(F)(F)F (stereo not shown)"
  result.type: "Surinam Grass plant response rating"
  val: 98
- compound: "Cn1nc(C(F)(F)F)c(C[S+]([O-])c2cc(Cl)cc[n+]2[O-])c1Cl (racemic)"
  result.type: "Surinam Grass plant response rating"
  val: 80
